assay system: human serum albumin (HSA) (Homo sapiens, UniProt P02768)
Sequence (P02768 25-609): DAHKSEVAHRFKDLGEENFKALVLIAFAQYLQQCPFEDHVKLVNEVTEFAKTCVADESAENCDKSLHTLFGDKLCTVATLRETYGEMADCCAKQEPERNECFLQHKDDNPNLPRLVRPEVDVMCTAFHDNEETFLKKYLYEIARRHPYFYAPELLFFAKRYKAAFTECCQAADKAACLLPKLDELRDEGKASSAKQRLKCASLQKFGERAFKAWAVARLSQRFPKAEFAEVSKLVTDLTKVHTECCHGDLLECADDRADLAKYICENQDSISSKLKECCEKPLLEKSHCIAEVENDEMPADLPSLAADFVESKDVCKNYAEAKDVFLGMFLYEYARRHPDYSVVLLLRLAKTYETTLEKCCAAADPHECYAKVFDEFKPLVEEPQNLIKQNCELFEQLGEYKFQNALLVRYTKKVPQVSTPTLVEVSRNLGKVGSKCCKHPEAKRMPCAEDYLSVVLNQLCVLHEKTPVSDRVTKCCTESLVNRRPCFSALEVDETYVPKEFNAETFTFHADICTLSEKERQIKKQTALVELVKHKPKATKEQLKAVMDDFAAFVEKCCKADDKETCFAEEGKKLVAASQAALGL
assay explanation: Biolayer interferometry (BLI) binding to biotinylated HSA
test context: pH 7.4
outcome measure: kon (M⁻¹ s⁻¹)
Lab book: enter the figure in M⁻¹ s⁻¹, no units written.

Give kon (human serum albumin (HSA) (Homo sapiens, UniProt P02768)) of the following compound: Cc1cc(-c2ccc(NC(=O)CN3CCN(CC(=O)O)CCN(CC(=O)O)CC3)c(C)c2)ccc1N=Nc1ccc2c(S(=O)(=O)O)cc(S(=O)(=O)O)c(N)c2c1O [NtEB]
13500
